Collected AUC(0-t) values appear next to each entry.
# Protocol Summary: Pharmacokinetic assessments
# Format: in vivo, patients
# Protocol Conditions: human, serum, intravenous, 25 mg/week
Give just the numeric value; µg·h/mL need not be written.

Smiles Str | Data Value
CO[C@H]1C[C@@H]2CC[C@@H](C)[C@@](O)(O2)C(=O)C(=O)N2CCCC[C@H]2C(=O)O[C@H]([C@H](C)C[C@@H]2CC[C@@H](OC(=O)C(C)(CO)CO)[C@H](OC)C2)CC(=O)[C@H](C)/C=C(\C)[C@@H](O)[C@@H](OC)C(=O)[C@H](C)C[C@H](C)/C=C/C=C/C=C/1C | 4.25

INPUT: Would you kindly share the measured AUC(0-t) for CO[C@H]1C[C@@H]2CC[C@@H](C)[C@@](O)(O2)C(=O)C(=O)N2CCCC[C@H]2C(=O)O[C@H]([C@H](C)C[C@@H]2CC[C@@H](O)[C@H](OC)C2)CC(=O)[C@H](C)/C=C(\C)[C@@H](O)[C@@H](OC)C(=O)[C@H](C)C[C@H](C)/C=C/C=C/C=C/1C ?
OUTPUT: 6.57
